Test system: heart rate
Assay: Pharmacodynamics in conscious dogs during transdermal iontophoretic administration
Format: in vivo, dog
Details: iontophoresis 0.25 mA, 10 min; concentration (mM): isoproterenol 2.5, arbutamine 20, Ex 4 2, Ex 1 3, Ex 11 12, Ex 9 8, Ex 6 8
# reported T50 (time after termination of current for heart rate to return 50% toward baseline); entries follow
PARAMETER MEASURED: T50 (time after termination of current for heart rate to return 50% toward baseline) (min)

[
  {
    "COMPOUND": "Oc1ccc(CCCCNC[C@H](O)c2ccc(O)c(O)c2)cc1 [Arbutamine, reference compound]",
    "RESULT UNIT": "min",
    "REPORTED VALUE": 24.8
  },
  {
    "COMPOUND": "C[S+]([O-])CCCNC[C@H](O)c1ccc(O)c(O)c1 (stereo partly shown)",
    "RESULT UNIT": "min",
    "REPORTED VALUE": 13.6
  },
  {
    "COMPOUND": "CC(C)NCC(O)c1ccc(O)c(O)c1 (stereo not shown) [Isoproterenol, reference compound]",
    "RESULT UNIT": "min",
    "REPORTED VALUE": 12.2
  },
  {
    "COMPOUND": "N#CCCCNC[C@H](O)c1ccc(O)c(O)c1",
    "RESULT UNIT": "min",
    "REPORTED VALUE": 12.4
  },
  {
    "COMPOUND": "COCCC(C)NC[C@H](O)c1ccc(O)c(O)c1 (stereo partly shown)",
    "RESULT UNIT": "min",
    "REPORTED VALUE": 9.1
  },
  {
    "COMPOUND": "CSCCCCNC[C@H](O)c1ccc(O)c(O)c1",
    "RESULT UNIT": "min",
    "REPORTED VALUE": 9.3
  },
  {
    "COMPOUND": "CSCCCNC[C@H](O)c1ccc(O)c(O)c1",
    "RESULT UNIT": "min",
    "REPORTED VALUE": 12.7
  }
]
